Assay: chemical genetic growth profiling, strain panel (AID 1159580);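 note: tested at 20 µM; growth read once vehicle control cultures reached saturation at 30 °C; lower values mean less growth of the strain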
Details: S. cerevisiae deletion strains, growth OD, locus YDL108W, strain KIN28
The whole screen tested about 5,500 compounds, of which about 2,000 (36%) were called active. About 18% were inconclusive and are not listed. Cut-off read from the data, not from the text of the source: active = normalized growth mostly below about 0.91 (no sharp cut-off); inconclusive = no clear call, values can overlap the other calls; inactive = mostly above about 0.92. The list shows a part of the results.
Labels: active, inactive

- Molecule: "O=c1c2ccccc2[nH]c(=S)n1-c1cccc(C(F)(F)F)c1"
  Category: "active"
- Molecule: "S=c1[nH]nc(Nc2ccc(I)cc2)s1"
  Category: "active"
- Molecule: "CC(=O)ON=C1c2cc([N+](=O)[O-])ccc2-c2ccc([N+](=O)[O-])cc21"
  Category: "inactive"
- Molecule: "O=C(/C=C/Sc1nc2ccccc2s1)c1ccc(Cl)cc1"
  Category: "inactive"
- Molecule: "Cc1c(-c2ccnn2C(=O)c2ccco2)cnn1-c1ccccc1"
  Category: "inactive"
- Molecule: "O=[N+]([O-])c1ccc2oc(C(O)c3ccc(-c4ccccc4)cc3)cc2c1 (stereo unspecified)"
  Category: "inactive"
- Molecule: "O=C(NNc1ccc(I)cc1)c1cc(Cl)cc(Cl)c1"
  Category: "inactive"
- Molecule: "Cc1c(C(=S)Nc2ccccc2)sc2ccccc12"
  Category: "inactive"
- Molecule: "FC(F)(F)c1cccc(-n2c(CSCc3cccc4ccccc34)n[nH]c2=S)c1"
  Category: "inactive"
- Molecule: "Cc1c(C(=O)N(Cc2ccccc2)Cc2cccs2)cnn1-c1ccc(Cl)cc1"
  Category: "inactive"
- Molecule: "ClC1=C(C=Nc2ccc(Cl)cc2)CSc2ccc(Cl)cc21"
  Category: "inactive"

Value source: PubChem BioAssay AID1159580
